FYI, the data here is from patent US12509460B2.

Below is a list of entries, each paired with its recorded MDCK-MDR1: % Recov A-B value.
System: MDR1-MDCK cell monolayers
protocol: Blood-brain-barrier (BBB) penetration potential via MDCK-MDR1 permeability assay
condition: A-B direction
measured-quantity: MDCK-MDR1: % Recov A-B (%)

>  <molecule>
CCc1cn(-c2ccc(-c3ccc(N(C)[C@@H]4C[C@H]5CC(F)(F)[C@@H](C4)N5)nn3)c(O)c2)cn1 [Compound 18A]

>  <recorded-measurement>
56

$$$$
>  <molecule>
COc1cn(-c2ccc(-c3ccc(N(C)[C@H]4C[C@@H]5CC(F)(F)[C@H](C4)N5)nn3)c(O)c2)cn1 [Compound 19B]

>  <recorded-measurement>
91

$$$$
>  <molecule>
CN(c1ccc(-c2ccc(-n3nccn3)cc2O)nn1)[C@@H]1C[C@H]2CC[C@H](N2)[C@@H]1F [Compound 90A]

>  <recorded-measurement>
41

$$$$
>  <molecule>
CN(c1ccc(-c2cc(F)c(-c3ccn(C)c(=O)c3)cc2O)nn1)[C@@H]1C[C@H]2CC(F)(F)[C@@H](C1)N2 [Compound 22A]

>  <recorded-measurement>
86

$$$$
>  <molecule>
CN(c1ccc(-c2ccc(-c3cnc(C#N)cn3)cc2O)nn1)[C@H]1C[C@@H]2CCC[C@@H](N2)[C@H]1F [Compound 28B]

>  <recorded-measurement>
36

$$$$
>  <molecule>
CN(c1ccc(-c2cc(F)c(-n3ccnn3)cc2O)nn1)[C@@H]1C[C@H]2CC[C@H](N2)[C@@H]1F [Compound 52A]

>  <recorded-measurement>
86

$$$$
>  <molecule>
CN(c1ccc(-c2cc3ncccc3cc2O)nn1)[C@@H]1C[C@H]2CC(F)(F)[C@@H](C1)N2 [Compound 46A]

>  <recorded-measurement>
68

$$$$
>  <molecule>
Cc1nc2cc(O)c(-c3ccc(N(C)[C@H]4C[C@@H]5CC[C@@H](N5)[C@H]4F)nn3)cc2o1 (single isomer, unassigned) [Compound 40B]

>  <recorded-measurement>
67

$$$$
>  <molecule>
C#Cc1ccc(-c2ccc(N(C)[C@@H]3C[C@H]4CC[C@H](N4)[C@@H]3F)nn2)c(O)c1 [Compound 10A]

>  <recorded-measurement>
55

$$$$
>  <molecule>
CN(c1ccc(-c2ccc(-n3nccn3)cc2O)nn1)[C@@H]1C[C@H]2CCC[C@H](N2)[C@@H]1F

>  <recorded-measurement>
29

$$$$
>  <molecule>
CN(c1ccc(-c2cc3c(=O)n(C)ccc3cc2O)nn1)[C@@H]1C[C@H]2CC[C@H](N2)[C@@H]1F [Compound 83A]

>  <recorded-measurement>
89

$$$$
>  <molecule>
CN(c1ccc(-c2ccc(C#N)cc2O)nn1)[C@H]1C[C@@H]2CC[C@@H](N2)[C@H]1F [Compound 38B]

>  <recorded-measurement>
95

$$$$
>  <molecule>
Cc1cnc(-c2ccc(-c3ccc(N(C)[C@H]4C[C@@H]5CCC[C@@H](N5)[C@H]4F)nn3)c(O)c2)cn1 [Compound 26B]

>  <recorded-measurement>
60

$$$$
>  <molecule>
CN(c1ccc(-c2cc3cccnc3cc2O)nn1)[C@@H]1C[C@H]2CC[C@H](N2)[C@@H]1F [Compound 74A]

>  <recorded-measurement>
69

$$$$
>  <molecule>
CC#Cc1ccc(-c2ccc(N(C)[C@@H]3C[C@H]4CC[C@H](N4)[C@@H]3F)nn2)c(O)c1 (single isomer, unassigned) [Compound 30A]

>  <recorded-measurement>
35

$$$$
>  <molecule>
CN(c1ccc(-c2cc3c(F)cn(C)c(=O)c3cc2O)nn1)[C@H]1C[C@@H]2CC[C@@H](N2)[C@H]1F [Compound 54B]

>  <recorded-measurement>
99

$$$$
>  <molecule>
CN(c1ccc(-c2ccc(C#N)cc2O)nn1)[C@H]1C[C@@H]2CCC[C@@H](N2)[C@H]1F [Compound 39B]

>  <recorded-measurement>
96

$$$$
>  <molecule>
COc1cnc(-c2ccc(-c3ccc(N(C)[C@@H]4C[C@H]5CCC[C@H](N5)[C@@H]4F)nn3)c(O)c2)cn1 [Compound 29A]

>  <recorded-measurement>
26

$$$$
>  <molecule>
CN(c1ccc(-c2cc(F)c(-c3ccn(C)c(=O)c3)cc2O)nn1)[C@H]1C[C@@H]2CC[C@@H](N2)[C@H]1F

>  <recorded-measurement>
97

$$$$
>  <molecule>
CN(c1ccc(-c2ccc(-n3nccn3)cc2O)nn1)[C@H]1C[C@@H]2CC[C@@H](N2)[C@H]1F [Compound 90B]

>  <recorded-measurement>
43

$$$$
>  <molecule>
CNC(=O)c1cc(O)c(-c2ccc(N(C)[C@H]3C[C@@H]4CC[C@@H](N4)[C@H]3F)nn2)cc1F [Compound 47B]

>  <recorded-measurement>
101

$$$$
>  <molecule>
CN(c1ccc(-c2ccc(-c3ccn(C)n3)cc2O)nn1)[C@@H]1C[C@H]2CC[C@H](N2)[C@@H]1F (single isomer, unassigned) [Compound 36A]

>  <recorded-measurement>
68

$$$$
>  <molecule>
CN(c1ccc(-c2ccc(-c3cnn(C)c3)cc2O)nn1)[C@@H]1C[C@H]2CCC[C@H](N2)[C@H]1F [Compound 14A]

>  <recorded-measurement>
59

$$$$
>  <molecule>
CN(c1ccc(-c2ccc(-n3ccnc3)cc2O)nn1)[C@H]1C[C@@H]2CCC[C@@H](N2)[C@H]1F [Compound 11B]

>  <recorded-measurement>
77

$$$$
>  <molecule>
CCN(c1ccc(-c2ccc(-c3cn[nH]c3)cc2O)nn1)[C@@H]1C[C@H]2CC[C@H](N2)[C@@H]1F [Compound 12A]

>  <recorded-measurement>
72

$$$$
>  <molecule>
CN(c1ccc(-c2cc3cccnc3cc2O)nn1)[C@@H]1C[C@H]2CC(F)(F)[C@@H](C1)N2 [Compound 45A]

>  <recorded-measurement>
104

$$$$
>  <molecule>
CN(c1ccc(-c2cc(F)c(-c3ccoc(=O)c3)cc2O)nn1)[C@H]1C[C@@H]2CC[C@@H](N2)[C@H]1F [Compound 17B]

>  <recorded-measurement>
62

$$$$
